Assay: Apparent permeability in human Caco-2 cells incubated for 180 mins by LC-MS/MS method
Assay type: ADME, cell-based
Positions of bridges follow the written chain, without caps; N, C: chain ends. Non-standard residues stand in square brackets, D forms with d. Residues, ends and D or L forms follow the SMILES beside them. *: point of attachment. hPhe(3-Cl-4-CF3) = N[C@@H](CCc1ccc(C(F)(F)F)c(Cl)c1)C(=O)O; NMeGly(cPent) = CN[C@H](C(=O)O)C1CCCC1; NMeGly(cBu) = CN[C@H](C(=O)O)C1CCC1; NMeCha = CN[C@@H](CC1CCCCC1)C(=O)O; NMeChg = CN[C@H](C(=O)O)C1CCCCC1; NMeD = CN[C@@H](CC(=O)O)C(=O)O; NMeL = CN[C@@H](CC(C)C)C(=O)O; NMehSer = CN[C@@H](CCO)C(=O)O; NMeV = CN[C@H](C(=O)O)C(C)C; Morpholide = C1CN(*)CCO1; NMeA = CN[C@@H](C)C(=O)O; Piperidide = C1CCN(*)CC1; Ac5c = NC1(C(=O)O)CCCC1; Aze = O=C(O)[C@@H]1CCN1; Sar = CNCC(=O)O
ATTRIBUTE_MEASURED: Papp at 3 h
I'd appreciate it if you wrote the number followed by its unit.

Some solved cases for reference:
1. CC[C@H](C)[C@@H]1NC(=O)[C@H](C2CCC2)N(C)C(=O)C[C@@H](C(=O)N2CCCCC2)N(C)C(=O)[C@H](C(C)C)N(C)C(=O)C2(CCCC2)NC(=O)[C@@H]2CCCN2C(=O)[C@H](CCc2ccc(C(F)(F)F)c(Cl)c2)NC(=O)CN(C)C(=O)[C@H](CC2CCCCC2)N(C)C(=O)CN(C)C(=O)CN(C)C1=O ([NMeGly(cBu)]I[Sar][Sar][NMeCha][Sar][hPhe(3-Cl-4-CF3)]P[Ac5c][NMeV][NMeD]-Piperidide; lactam N-11) ... 0.91 ×10⁻⁶ cm/s
2. CC[C@H](C)[C@@H]1NC(=O)[C@H](CCOC)N(C)C(=O)C[C@@H](C(=O)N2CCCCC2)N(C)C(=O)[C@H](C2CCCCC2)N(C)C(=O)C2(CCCC2)NC(=O)[C@@H]2CCCN2C(=O)[C@H](CCc2ccc(C(F)(F)F)c(Cl)c2)NC(=O)CN(C)C(=O)[C@H](CC2CCCCC2)N(C)C(=O)CN(C)C(=O)CN(C)C1=O ([NMehSer](Me)I[Sar][Sar][NMeCha][Sar][hPhe(3-Cl-4-CF3)]P[Ac5c][NMeChg][NMeD]-Piperidide; lactam N-11) ... 0.37 ×10⁻⁶ cm/s

Incoming: Query: Papp at 3 h; subject: CC[C@H](C)[C@@H]1NC(=O)[C@H](CC(C)C)N(C)C(=O)C[C@@H](C(=O)N2CCOCC2)N(C)C(=O)[C@H](C2CCCC2)N(C)C(=O)C2(CCCC2)NC(=O)[C@@H]2CCCN2C(=O)[C@H](CCc2ccc(C(F)(F)F)c(Cl)c2)NC(=O)CN(C)C(=O)[C@H](CC2CCCCC2)N(C)C(=O)[C@@H]2CCN2C(=O)[C@H](C)N(C)C1=O ([NMeL]I[NMeA][Aze][NMeCha][Sar][hPhe(3-Cl-4-CF3)]P[Ac5c][NMeGly(cPent)][NMeD]-Morpholide; lactam N-11)
Outgoing: 1.74 ×10⁻⁶ cm/s
